Values compiled from patent US20070148201A1.

# Tested System: fusion construct of the CD4 V-domain and CD4 D1-domain of the human CD4 coreceptor (amino acids 1-184) with … (human, UniProt P01730 26-209)
# Protocol Text: ELISA, mutein coated on plate, digoxigenin-conjugated CD4-VD1 titrated from 2000 nM, anti-digoxigenin Fab-AP detection, apparent KD from curve fit
# Procedure: After washing five times with 100 μl PBST/0.05 per well employing an automated ELISA plate washer, the wells were filled with 100 μl PBST containing 3% w/v non-fat dry milk powder (Vitalia), in order to saturate unspecific binding sites and incubated for one hour at room temperature. After blocking, the microtiter plate was washed two times with 100 μl PBST/0.05 as described above. […]
Measured Property: pKd
Scale explanation: pKd corresponds to minus log10 of a concentration expressed in moles per litre.

As a guide, the following entries are already answered.
Binder	pKd
BBP mutein CD4-7B4-K23 (designed binder) DVYHDGACPEVKPVDNFDWSQYHGKWWEVAKYPNGNELRGKCGWAEYTPEGKSVKVSNYHVINTSEGFIEGTAYPVGDSKIGKIYHSLTNTGMTKENVFNVLSTDNKNYIIGYYCSWEVSKGHHDFVWVLSRSMVLTGEAKTAVENYLIGSPVVDSQKLVYSDFSEAACKVNNS	6.77
BBP mutein CD4-2C3-N22 (designed binder) DVYHDGACPEVKPVDNFDWSQYHGKWWEVAKYPNAKESPGKCGWAEYTPEGKSVKVSNYHVIQRLEGFIEGTAYPVGDSKIGKIYHSLTTWGLTKENVFNVLSTDNKNYIIGYYCGYVEKSKGHPDFVWVLSRSMVLTGEAKTAVENYLIGSPVVDSQKLVYSDFSEAACKVNN	6.73
BBP mutein CD4-2C3-K20 (designed binder) DVYHDGACPEVKPVDNFDWSQYHGKWWEVAKYPNTSEHSGKCGWAEYTPEGKSVKVSNYHVIKKKERFIEGTAYSAGDSKIGKIYHSLTSVGKTKENVFNVLSTDNKNYIIGYYCSYKEKTKGHGDFVWVLSRSMVLTGEAKTAVENYLIGSPVVDSQKLVYSDFSEAACKVNN	6.87

Looking up BBP mutein CD4-7B4-N14 (designed binder) DVYHDGACPEVKPVDNFDWSQYHGKWWEVAKYPNRAEIGGKCGWAEYTPEGKSVKVSNYHVIKQWEKFIEGTAYPVGDSKIGKIYHSLTGTGSTKENVFNVLSTDNKNYIIGYYCNYHESRKGHRDFVWVLSRSMVLTGEAKTAVENYLIGSPVVDSQKLVYSDFSEAACKVNN , I found its pKd recorded as 6.75

The value of pKd measured for the binder BBP mutein CD4-2G3-H22 (designed binder) DVYHDGACPEVKPVDNFDWSQYHGKWWEVAKYPNMTEVKGKCGWAEYTPEGKSVKVSNYHVIREKEWFIEGTAYPVGDSKIGKIYHSLTISGLTKENVFNVLSTDDKNYIIGYYCKYMELWKGHRDFVWVLSRSMVLTGEAKTAVENYLIGSPVVDSQKLVYSDFSEAACKVNN turned out to be 6.98

Notebook: BBP mutein CD4-2G3-L22 (designed binder) DVYHDGACPEVKPVDNFDWSQYHGKWWEVAKYPNIAELGGKCGWAEYTPEGKSVKVSNYHVINWNEMFIEGTAYPVGDSKIGKISHSLTKVGQTKENVFNVLSTDNKNYIIGYYCQYSERAKGHLDFVWVLSRSMVLTGEAKTAVENYLIGSPVVDSQKLVYSDFSEAACKVNN , pKd read as 6.70
